Tested on: TNFα
TEST_METHOD_NOTES: Cot Monocyte TNFα Cell Based Assay
RECORDED_CONDITIONS: Homo sapiens, Monocyte, read-out: EC50 TNF, LPS-stimulated human monocytes, TNFα
OBSERVATION_TYPE: EC50 (nM)

Study these solved cases before continuing.
>>> recorded_number("CC(C)(C)CNc1c(C#N)cnc2c(C#N)cc(N[C@H](c3cn(C4(C(F)(F)F)CC4)nn3)c3cncc4ccccc34)cc12")
808
>>> recorded_number("Cn1nccc1[C@H](Nc1cc(Cl)c2ncc(C#N)c(NCC(C)(C)C)c2c1)c1cn(C2(C(F)F)CC2)nn1")
198
>>> recorded_number("CC(C)(C)CNc1c(C#N)cnc2c(Cl)cc(N[C@H](c3cn(C4(C(F)(F)F)CC4)nn3)c3cccc4ncsc34)cc12")
218

(A) CC[C@@H](Nc1c(C#N)cnc2c(Cl)cc(N[C@@H](c3cccnc3)c3cn(CCCN4CCCC4)nn3)cc12)c1ccccc1
(B) Cc1nc(Cl)ccc1[C@H](Nc1cc(Cl)c2ncc(C#N)c(NCC(C)(C)C)c2c1)c1cn(C2(C(F)F)CC2)nn1
(C) Cc1nc(F)ccc1[C@H](Nc1cc(C#N)c2ncc(C#N)c(NCC(C)(C)C)c2c1)c1cn(C2(CO)CC2)nn1
(D) N#Cc1cnc2c(Cl)cc(N[C@@H](c3cccnc3)c3c[nH]nn3)cc2c1Nc1cnc(F)c(F)c1
Order these by EC50, descending, and give the full ranking. # output: labels, in the requested order
D, C, B, A

###

TESTED_TARGET: Human Cot (Homo sapiens (Human))
Sequence (P41279 30-397): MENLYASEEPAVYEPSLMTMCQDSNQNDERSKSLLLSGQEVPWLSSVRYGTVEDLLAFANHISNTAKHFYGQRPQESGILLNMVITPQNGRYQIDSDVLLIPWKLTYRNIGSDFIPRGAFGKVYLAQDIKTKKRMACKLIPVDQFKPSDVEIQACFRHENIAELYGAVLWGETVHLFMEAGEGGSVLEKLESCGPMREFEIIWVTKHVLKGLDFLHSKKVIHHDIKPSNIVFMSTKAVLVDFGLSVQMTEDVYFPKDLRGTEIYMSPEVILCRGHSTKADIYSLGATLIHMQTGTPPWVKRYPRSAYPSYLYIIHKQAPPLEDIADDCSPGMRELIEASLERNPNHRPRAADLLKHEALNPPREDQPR
TEST_METHOD_NOTES: High Throughput Cot Biochemical Assay
RECORDED_CONDITIONS: IC50 HTRF, Cot HTRF (TR-FRET) biochemical assay
pIC50: −log10 of the molar value.
OBSERVATION_TYPE: pIC50

>>> recorded_number("Cc1ncccc1[C@H](Nc1cc(Cl)c2ncc(C#N)c(Nc3ccc(Cl)c(Cl)c3F)c2c1)c1cn(C2CCN(C(C)(C)C)CC2)nn1")
8.10
>>> recorded_number("Cc1ncccc1[C@H](Nc1cc(Cl)c2ncc(C#N)c(Nc3cccc(Cl)c3)c2c1)c1cn(C2CCN(C(C)(C)C)CC2)nn1")
8.10
>>> recorded_number("Cc1ncsc1[C@H](Nc1cc(Cl)c2ncc(C#N)c(Nc3cccc(Cl)c3F)c2c1)c1c[nH]nn1")
8.30
>>> recorded_number("Cn1ncc2c([C@H](Nc3cc(C#N)c4ncc(C#N)c(NCC(C)(C)C)c4c3)c3cn(C4CC4)nn3)cccc21")
8.70
>>> recorded_number("Cc1nc(F)ccc1[C@H](Nc1cc(F)c2ncc(C#N)c(NCC(C)(C)C)c2c1)c1cn(C2(C(F)(F)F)CC2)nn1")
8.05
>>> recorded_number("CC(C)(C)CNc1c(C#N)cnc2c(Cl)cc(N[C@H](c3cn(C4(C(F)(F)F)CC4)nn3)c3cccc4ncsc34)cc12")
8.05

(P) Cc1nc(F)ccc1[C@H](Nc1cc(Cl)c2ncc(C#N)c(NCC(C)(C)C)c2c1)c1nnn(C2CC2)c1F
(Q) N#Cc1cnc2c(Cl)cc(N[C@H](c3cn(C4COC4)nn3)c3cccnc3Cl)cc2c1Nc1ccc(F)c(Cl)c1
(R) CC(C)(C)N1CCC(n2cc([C@@H](Nc3cc(Cl)c4ncc(C#N)c(Nc5ccc(F)c(Cl)c5)c4c3)c3ccc4scnc4c3)nn2)CC1
(S) Cc1nc(F)ccc1[C@H](Nc1cc(Cl)c2ncc(C#N)c(NCC3C(C)(C)C3(C)C)c2c1)c1cn(C2(C(F)F)CC2)nn1
(T) Cc1nc(F)ccc1[C@H](Nc1cc(Cl)c2ncc(C#N)c(N[C@@H]3CCOC3(C)C)c2c1)c1cn(C2(C(F)F)CC2)nn1
I would appreciate it if you could sort these 5 compounds by pIC50, starting from the smallest number. # output: labels, in the requested order
T, S, R, Q, P
